tested on: U-87 MG human glioblastoma; test: U87 MG CCK-8 proliferation assay; format: cell-based; settings: U-87 MG cells, 72 hr; read-out: U87MG CCK-8
QUANTITY KIND: EC50

# COMPOUND, EC50
data = [
    ("CCOc1cc(N2CCC(C(=O)N3CCC(CN4CCN(Cc5ccc(-n6c(C(=O)N[C@H](C)C(F)(F)F)nnc6-c6cc(CC)c(O)cc6O)cc5)CC4)CC3)CC2)ccc1Nc1ncc2c(n1)N(S(C)(=O)=O)c1ccccc1C(=O)N2C", "100 to 1000 nM"),
]

GET /value?item= CCCc1cc(-c2nnc(O)n2-c2ccc(CNC(=O)C3CCN(c4ccc(Nc5ncc6c(n5)N(C)c5ccccc5C(=O)N6C)c(OCC)c4)CC3)cc2)c(O)cc1O [Compound 029] &field=EC50 returns > 1000 nM

Just so you know, measured EC50 for CCCc1cc(-c2nnc(O)n2-c2ccc(CNC(=O)C3CCN(c4ccc(Nc5ncc6c(n5)N(C)c5ccccc5C(=O)N6C)c(OCC)c4)CC3)cc2)c(O)cc1O [Compound 039] came out at 100 to 1000 nM

The compound listed as "CCOc1cc(N2CCC(C(=O)NCCOCc3ccc(-n4c(O)nnc4-c4cc(C(C)C)c(O)cc4O)cc3)CC2)ccc1Nc1ncc2c(n1)N(C)c1ccccc1C(=O)N2C" has a reported EC50 of 100 to 1000 nM

Noted for "CCOc1cc(N2CCC(C(=O)N3CCC(N4CCN(Cc5ccc(-n6c(O)nnc6-c6cc(C(C)C)c(O)cc6O)cc5)CC4)CC3)CC2)ccc1Nc1ncc2c(n1)N(C)c1ccccc1C(=O)N2C.Cl" : its EC50 reads < 100 nM

----------
IC50 values by entry
Target: HSP90α protein (Homo sapiens)
Construct: purchased BPS Bioscience #50298
Assay: HSP90α-binding FP (BODIPY) assay
Conditions: FP competition with BODIPY-labeled RNK04010
Procedure: Binding of test compounds to HSP90α protein was measured by fluorescent polarization (FP) using the HSP90α (N-terminal) Assay Kit (BPS Bioscience, #50298), following the manufacturer's instructions, except as noted. […] After the final step of adding HSP90α protein to each assay well, plates were mixed by brief shaking, incubated at 25° C. for 120 min for FITC-geldanamycin or 300 min for RNK04010, and fluorescence was measured using a PerkinElmer EnVision Plate Reader.

Consider the worked cases shown below.
# COMPOUND, REPORTED RESULT
measured = [
    ("CCOc1cc(N2CCC(C(=O)N3CCC(CN4CCN(C(=O)CNC(=O)O[C@H]5CC[C@H](Nc6cc(-n7nc(C(F)(F)F)c8c7CC(C)(C)CC8=O)ccc6C(N)=O)CC5)CC4)CC3)CC2)ccc1Nc1ncc2c(n1)N(S(C)(=O)=O)c1ccccc1C(=O)N2C [Compound 119]", "> 1000 nM"),
    ("CCOc1cc(N2CCC(C(=O)N3CCC(CN4CCN(C(=O)CNC(=O)O[C@H]5CC[C@H](Nc6cc(-n7nc(C(F)(F)F)c8c7CC(C)(C)CC8=O)ccc6C(N)=O)CC5)CC4)CC3)CC2)ccc1Nc1ncc2c(n1)N(C)c1ccccc1C(=O)N2C [Compound 122]", "> 1000 nM"),
    ("CCOc1cc(N2CCC(C(=O)N3CCC(CN4CCC(Cc5ccc(-n6c(O)nnc6-c6cc(C(C)C)c(O)cc6O)cc5)CC4)CC3)CC2)ccc1Nc1ncc2c(n1)N(C)c1ccccc1C(=O)N2C [Compound 044]", "< 100 nM"),
    ("CCOc1cc(N2CCC(C(=O)NCCOCCNC(=O)O[C@H]3CC[C@H](Nc4cc(-n5nc(C(F)(F)F)c6c5CC(C)(C)CC6=O)ccc4C(N)=O)CC3)CC2)ccc1Nc1ncc2c(n1)N(S(C)(=O)=O)c1ccccc1C(=O)N2C [Compound 105]", "> 1000 nM"),
    ("CCOc1cc(N2CCC(C(=O)N3CCC(Cc4ccc(CN(C)Cc5ccc(-n6c(C(=O)NCC(F)(F)F)nnc6-c6cc(C)c(O)cc6O)cc5)cc4)CC3)CC2)ccc1Nc1ncc2c(n1)N(S(C)(=O)=O)c1ccccc1C(=O)N2C [Compound 100]", "> 1000 nM"),
    ("CCCc1cc(-c2nnc(C(=O)NCCN3CCCCC3)n2-c2ccc(CN3CCN(CC4CCN(C(=O)C5CCN(c6ccc(Nc7ncc8c(n7)N(S(C)(=O)=O)c7ccccc7C(=O)N8C)c(OCC)c6)CC5)CC4)CC3)cc2)c(O)cc1O [Compound 093]", "< 100 nM"),
]

So for CCOc1cc(N2CCC(C(=O)NCc3ccc(-n4c(O)nnc4-c4cc(CC)c(O)cc4O)cc3)CC2)ccc1Nc1ncc2c(n1)N(S(C)(=O)=O)c1ccccc1C(=O)N2C [Compound 071] , the logged IC50 turned out to be 100 to 1000 nM

Lab book: IC50 of CCOc1cc(N2CCC(C(=O)N3CCC(Cc4ccc(CN(C)Cc5ccc(-n6c(C(=O)NCC(F)(F)F)nnc6-c6cc(C(C)C)c(O)cc6O)cc5)cn4)CC3)CC2)ccc1Nc1ncc2c(n1)N(C)c1ccccc1C(=O)N2C [Compound 057] noted as 100 to 1000 nM

# compound CCOc1cc(N2CCC(C(=O)N3CCC(CN4CCN(Cc5ccc(-n6c(C(=O)N[C@H](C)C(F)(F)F)nnc6-c6cc(CC)c(O)cc6O)cc5)CC4)CC3)CC2)ccc1Nc1ncc2c(n1)N(S(C)(=O)=O)c1ccccc1C(=O)N2C [Compound 123] ; its IC50 = 100 to 1000 nM

Recorded IC50 (compound CCOc1cc(N2CCC(C(=O)N3CCC(CN4CCN(Cc5ccc(-n6c(O)nnc6-c6cc(CC)c(O)cc6O)cc5)CC4)CC3)CC2)ccc1Nc1ncc2c(n1)N(S(C)(=O)=O)c1ccccc1C(=O)N2C [Compound 070] ): 100 to 1000 nM

Recorded result, CCOc1cc(N2CCC(C(=O)N3CCN(Cc4ccc(-n5c(O)nnc5-c5cc(CC)c(O)cc5O)cc4)CC3)CC2)ccc1Nc1ncc2c(n1)N(S(C)(=O)=O)c1ccccc1C(=O)N2C [Compound 086] , IC50: < 100 nM

----------
tested on: MDA-MB-468 human breast adenocarcinoma; test: MDA-MB-468 CCK-8 proliferation assay; format: cell-based; details: MDA-MB-468 cells, 72 hr
pEC50: −log10 of the molar value.
Overview of recorded pEC50 for various molecules

Study these solved cases before continuing.
# MOLECULE, pEC50
measured = [
    ("CCOc1cc(N2CCC(C(=O)NCC3CCN(C(=O)C4CCN(Cc5ccc(-n6c(O)nnc6-c6cc(C(C)C)c(O)cc6O)cc5)CC4)C3)CC2)ccc1Nc1ncc2c(n1)N(C)c1ccccc1C(=O)N2C (stereo not shown)", "< 6.00"),
    ("CCOc1cc(N2CCC(C(=O)N3CCN(Cc4ccc(-n5c(O)nnc5-c5cc(CC)c(O)cc5O)cc4)CC3)CC2)ccc1Nc1ncc2c(n1)N(C)c1ccccc1C(=O)N2C", "> 7.00"),
    ("CCOc1cc(N2CCC(C(=O)N3CCC(N4CCN(c5ccc(-n6c(O)nnc6-c6cc(C(C)C)c(O)cc6O)cc5)CC4)CC3)CC2)ccc1Nc1ncc2c(n1)N(C)c1ccccc1C(=O)N2C", "> 7.00"),
    ("CCOc1cc(N2CCC(C(=O)N3CCC(CN4CCN(Cc5ccc(-n6c(O)nnc6-c6cc(C(C)C)c(O)cc6OC)cc5)CC4)CC3)CC2)ccc1Nc1ncc2c(n1)N(C)c1ccccc1C(=O)N2C", "< 6.00"),
    ("CCOc1cc(N2CCC(C(=O)N3CCC(N4CCN(Cc5ccc(-n6c(O)nnc6-c6cc(C(C)C)c(O)cc6O)cc5)CC4)CC3)CC2)ccc1Nc1ncc2c(n1)N(C)c1ccccc1C(=O)N2C", "> 7.00"),
]

# pEC50 of "CCOc1cc(N2CCC(C(=O)NCCOCc3ccc(-n4c(O)nnc4-c4cc(C(C)C)c(O)cc4O)cc3)CC2)ccc1Nc1ncc2c(n1)N(C)c1ccccc1C(=O)N2C" = > 7.00

Recorded pEC50 (molecule "CCOc1cc(N2CCC(C(=O)N3CCC(CN4CCN(Cc5ccc(-n6c(O)nnc6-c6cc(CC)c(O)cc6O)cc5)CC4)CC3)CC2)ccc1Nc1ncc2c(n1)N(C)c1ccccc1C(=O)N2C" ): 6.00 to 7.00

----------
target: UniProtKB Q13164; test: MAPK7 Western blot protein degradation assay in U-87 MG cells; format: cell-based; design: U-87 MG human glioblastoma cells, which express MAPK7; endogenous in cells; host or cells: U-87 MG; settings: 48 hr, 100 nM
Sequence (Q13164 whole entry): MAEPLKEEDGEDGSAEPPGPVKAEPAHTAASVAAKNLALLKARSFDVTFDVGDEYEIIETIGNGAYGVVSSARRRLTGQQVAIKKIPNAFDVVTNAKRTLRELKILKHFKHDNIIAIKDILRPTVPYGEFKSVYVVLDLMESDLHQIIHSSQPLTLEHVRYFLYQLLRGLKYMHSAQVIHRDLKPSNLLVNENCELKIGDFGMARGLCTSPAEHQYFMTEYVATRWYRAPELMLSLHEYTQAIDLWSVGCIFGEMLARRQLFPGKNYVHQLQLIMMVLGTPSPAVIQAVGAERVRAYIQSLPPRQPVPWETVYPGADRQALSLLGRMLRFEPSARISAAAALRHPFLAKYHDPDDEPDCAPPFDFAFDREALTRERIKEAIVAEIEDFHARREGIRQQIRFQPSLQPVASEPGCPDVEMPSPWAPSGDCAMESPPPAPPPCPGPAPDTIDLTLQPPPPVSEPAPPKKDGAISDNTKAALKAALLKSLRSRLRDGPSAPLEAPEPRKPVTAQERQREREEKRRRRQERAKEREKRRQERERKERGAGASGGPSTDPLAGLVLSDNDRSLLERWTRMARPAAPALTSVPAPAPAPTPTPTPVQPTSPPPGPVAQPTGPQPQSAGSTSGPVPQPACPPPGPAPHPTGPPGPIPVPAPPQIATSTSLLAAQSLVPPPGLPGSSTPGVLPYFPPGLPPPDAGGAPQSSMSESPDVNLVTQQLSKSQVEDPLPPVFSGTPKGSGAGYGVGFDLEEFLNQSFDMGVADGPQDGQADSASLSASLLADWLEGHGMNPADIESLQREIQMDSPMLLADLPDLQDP

# INPUT SMILES, MAPK7 degradation (100 nM)
data = [
    ("CCOc1cc(N2CCC(C(=O)N3CCN(Cc4ccc(-n5c(O)nnc5-c5cc(C(C)C)c(O)cc5O)cc4)CC3)CC2)ccc1Nc1ncc2c(n1)N(C)c1ccccc1C(=O)N2C.Cl", "B (33-66% degradation)"),
    ("CCOc1cc(N2CCC(C(=O)N3CCC(N4CCN(c5ccc(-n6c(O)nnc6-c6cc(C(C)C)c(O)cc6O)cc5)CC4)CC3)CC2)ccc1Nc1ncc2c(n1)N(C)c1ccccc1C(=O)N2C", "B (33-66% degradation)"),
]
